experiment: inhibitors of TNFa-induced NFkB p65 translocation, primary screen, imaging, HUVEC, MLSMR starter and 10KST1 sets (AID 438); conditions: HUVEC TNFa-induced p65 nuclear translocation; at 2 µM, stronger effect = higher value, 0% TNFa-plus-vehicle, 100% no-TNFa wells;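 also: compound added about 3h40 before a 20 min TNFalpha stimulation; signal is the nuclear over cytoplasmic p65 intensity ratio per well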
Below, each entry is listed with its recorded inhibition.
READOUT_TYPE: inhibition (%)

COMPOUND	ENDPOINT_RESULT
Fc1ccc2[nH]c3c(N4CCN(Cc5ccc6c(c5)OCO6)CC4)ncnc3c2c1	-4.5
Nc1nonc1-c1noc(-c2ccccc2)n1	-3.5
c1cncc(Oc2cccc(Oc3cccnc3)c2)c1	-2.6
O=c1c(C=NCCCn2ccnc2)c(-c2ccccc2)[nH]n1-c1nc2ccccc2s1	-6.5
O=C(O)CCCCCCC1C(=O)NC(=O)N1CCC(O)C1CCCCC1 (stereo unspecified)	-9.7
O=C(NO)c1ccccc1O	1.9

----------
Below, each entry is listed with its recorded z-score.
assay: DUSP6 inhibitors restoring Erk phosphorylation by chemical complementation, primary imaging in DUSP6-transfected HeLa (AID 609); conditions: HeLa MKP-3 transfected, phospho-Erk imaging KS statistic; measured here: nuclear pErk red intensity z-score; at 10 µM; stronger effect = higher value; cells stimulated with TPA for 15 min
READOUT_TYPE: z-score

COMPOUND	READOUT_TYPE	ENDPOINT_RESULT
CC(C)(C)n1nnc(CCc2nnn(C(C)(C)C)n2)n1	z-score	-0.74
C/C=C(/C(=C/C)c1ccc(O)cc1)c1ccc(O)cc1	z-score	0.777
CC(=O)Nc1ccc(-c2cc3ccccc3o2)cc1	z-score	0.0674
CCC1(C)Cc2ccccc2-c2nc(NCCO)n(-c3ccccc3)c(=O)c21 (stereo unspecified)	z-score	0.687
CSc1nc2sc3c(c2c2nnnn12)CC(C)(C)OC3	z-score	0.586
COC(=O)C(NC(C)=O)(Nc1nc2c(s1)CCCC2)C(F)(F)F (stereo unspecified)	z-score	-1.06
O=C(NCCN1CCOCC1)c1cc2n(n1)C(C(F)(F)F)CC(c1ccc(F)cc1)N2 (stereo unspecified)	z-score	-0.339
COc1ccc(CCNc2nc3c(c(=O)n(C)c(=O)n3C)n2C)cc1OC	z-score	0.95
COc1ccc2cnn(-c3ccccc3C)c(=O)c2c1OC	z-score	1.16
Cc1ccc(N2C(=O)CC(N(O)C3CC(=O)N(c4ccc(C)cc4)C3=O)C2=O)cc1 (stereo unspecified)	z-score	0.988
Cc1c(C)c2cc(Cl)c(O)c(CN3CCCCC3)c2oc1=O	z-score	-0.936

----------
assay: inhibitors of larval lipid processing in zebrafish, primary screen, whole organism, PED6 fluorescence, gall bladder and intestine (AID 686); conditions: Zebrafish larvae PED6 lipid processing, fluorescence scoring; screened at 20 µM (by protocol);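 also: larvae 5 to 7 days old with five fish per well; signal comes from phospholipase A2 cleavage of quenched PED6 carried via bile; overnight exposure to compound and PED6 before scoring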
The source made the active and inactive calls.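 How the source made its calls: active means a full or partial loss of lipid-probe fluorescence in the fish gall bladder, intestine or both, judged by eye; inactive means no fluorescence loss, or compound toxic to the fish.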
Labels: y (active), n (inactive)

COMPOUND	LABEL
Cc1[nH]c(=O)[nH]c(=O)c1S(=O)(=O)N1CCCC1	n
COc1cccc(C2/C(=C(/O)c3cnn(-c4ccccc4)c3C)C(=O)C(=O)N2CCN(C)C)c1OC (stereo unspecified)	n
COc1ccccc1N1CCN(C2CCN(C(=O)c3cc(OC)c(OC)c(OC)c3)CC2)CC1	n
COc1cc2[nH]c3c(=O)n(CCN(C(C)C)C(C)C)cnc3c2cc1OC	n
NC(=O)N1c2ccccc2C=Cc2ccccc21	n
COc1ccc(C(=O)/C=C/Nc2cccc(C)n2)cc1OC	n
Cc1c(N=Cc2c(O)n(C3CCCCC3)c(=O)[nH]c2=O)c(=O)n(-c2ccccc2)n1C	y
CN(C)c1nc2sc3c(c2c(=O)n1C)CC(C)(C)OC3	n
Cc1nn(C)cc1CNC(=O)c1ccc(Br)o1	n
Cc1ccsc1C1NC(=O)c2c(sc3c2CCCC3)N1 (stereo unspecified)	n
CC1(C)CNC(=O)c2sc(N3CCOCC3)nc2C1	n

This collection of values is drawn from PubChem BioAssay.
